Tested on: Trypanosoma cruzi amastigotes (Tulahuen strain) cultured in 3T3 fibroblast cells
Assay: Assay for proliferation of kinetoplastid parasite Trypanosoma cruzi
Type: cell-based
Conditions: 144 h, Tulahuen amastigotes in 3T3 fibroblast cells, 6 day incubation, read-out: T cruzi EC50
# reported log10 of EC50; entries follow
log10 EC50, nM

[[record]]
molecule = "CCOC(=O)Nc1ccc(Cl)c(-c2nc3ncc(-c4ccc(NC)cc4)cc3[nH]2)c1"
assay_system = "Trypanosoma cruzi amastigotes (Tulahuen strain) cultured in 3T3 fibroblast cells"
result = 2.39

[[record]]
molecule = "COc1ccc(C(=O)Nc2ccc(Cl)c(-c3nc4ncc(C)cc4[nH]3)c2)c(OC)c1"
assay_system = "Trypanosoma cruzi amastigotes (Tulahuen strain) cultured in 3T3 fibroblast cells"
result = 3.38

[[record]]
molecule = "Cc1ccc(C(=O)Nc2ccc(Cl)c(-c3nc4ncc(C(F)(F)F)cc4[nH]3)c2)o1"
assay_system = "Trypanosoma cruzi amastigotes (Tulahuen strain) cultured in 3T3 fibroblast cells"
result = 2.15


Entry under review: CNc1ccc(-c2cnc3nc(-c4cc(NC(=O)c5cnccn5)ccc4Cl)[nH]c3c2)cc1 . Reported log10 of EC50?
1.81

Entry under review: Cc1cnc2nc(-c3cc(NC(=O)c4ccc(C)o4)ccc3Cl)[nH]c2c1 . Reported log10 of EC50?
2.17

Entry under review: Cc1cnc2nc(-c3cc(NC(=O)c4ccc(N5CCOCC5)cn4)ccc3Cl)[nH]c2c1 . Reported log10 of EC50?
3.36

Entry under review: O=C(Nc1ccc(Cl)c(-c2nc3ncc(-c4ccc(OCc5ccccc5)cc4)cc3[nH]2)c1)c1ccco1 . Reported log10 of EC50?
2.02

Entry under review: Cc1cnc2nc(-c3cc(NC(=O)C4CCCCN4)ccc3Cl)[nH]c2c1 (centres unmarked) . Reported log10 of EC50?
3.88

Entry under review: Cc1cnc2nc(-c3cc(NC(=O)c4ccc(Cl)o4)ccc3Cl)[nH]c2c1 . Reported log10 of EC50?
1.84

Entry under review: Cc1cnc2nc(-c3cc(NC(=O)c4ccc[nH]4)ccc3Cl)[nH]c2c1 . Reported log10 of EC50?
3.34

Entry under review: COCCOc1ccc(-c2cnc3nc(-c4cc(NC(=O)c5ccco5)ccc4Cl)[nH]c3c2)c(F)n1 . Reported log10 of EC50?
1.83

Entry under review: Cc1cnc2nc(-c3cc(NC(=O)c4ccc(S(C)(=O)=O)s4)ccc3Cl)[nH]c2c1 . Reported log10 of EC50?
1.83

Entry under review: CON(C)C(=O)Nc1ccc(Cl)c(-c2nc3ncc(C)cc3[nH]2)c1 . Reported log10 of EC50?
2.85

----------
# reported pEC50; entries follow
Test system: L. donovani HU3 strain in mouse peritoneal macrophages
Assay: Assay for proliferation of Leishmania parasites in mouse peritoneal macrophages
Assay type: cell-based, Leishmania donovani
Settings: Leishmania donovani, Peritoneal macrophage, read-out: L. donavani Macrophage EC50
pEC50: −log10 of the molar value.

Example cases with answers are listed next.
[[record]]
molecule = "Cc1cnc2nc(-c3cc(NC(=O)c4cc(C)on4)ccc3Cl)[nH]c2c1 [Compound 79]"
recorded_metric = "pEC50"
result = "< 4.30"

[[record]]
molecule = "COCn1c(-c2cc(NC(=O)N3CCCC3)ccc2Cl)nc2cc(Br)cnc21 [Example 385]"
recorded_metric = "pEC50"
result = "< 4.96"

[[record]]
molecule = "O=C(Nc1ccc(Cl)c(-c2nc3ncc(-c4ccc(OCc5ccccc5)cc4)cc3[nH]2)c1)c1ccco1 [Compound 47]"
recorded_metric = "pEC50"
result = "< 5.14"

[[record]]
molecule = "CC(=O)Nc1ccc(F)c(-c2nc3ncc(C)cc3[nH]2)c1 [Compound 272]"
recorded_metric = "pEC50"
result = "< 4.30"

[[record]]
molecule = "Cc1cnc2nc(-c3cc(NC(=O)CCCN(C)C)ccc3Cl)[nH]c2c1 [Compound 159]"
recorded_metric = "pEC50"
result = "< 4.30"

[[record]]
molecule = "Cc1cnc2nc(-c3cc(NC(=O)OCC(F)(F)F)ccc3Cl)[nH]c2c1 [Compound 225]"
recorded_metric = "pEC50"
result = "< 4.30"


Entry under review: Cc1cnc2nc(-c3cc(NC(=O)Cn4ccnc4)ccc3Cl)[nH]c2c1 [Compound 197] . Reported pEC50?
< 4.30

Entry under review: Cc1cnc2nc(-c3cc(NS(=O)(=O)CC(C)C)ccc3Cl)[nH]c2c1 [Compound 255] . Reported pEC50?
< 4.30

Entry under review: Cc1cnc2nc(-c3cc(NC(=O)N4CCNC4=O)ccc3Cl)[nH]c2c1 [Compound 246] . Reported pEC50?
< 4.30

Entry under review: Cc1cnc2nc(-c3cc(NC(=O)Cc4cccnc4)ccc3Cl)[nH]c2c1 [Compound 97] . Reported pEC50?
< 4.30

Entry under review: Cc1cnc2nc(-c3cc(NC(=O)c4ccno4)ccc3Cl)[nH]c2c1 [Compound 155] . Reported pEC50?
< 4.40

Entry under review: CNC(=O)c1ccc(-c2cnc3nc(-c4cc(NC(=O)c5ccco5)ccc4Cl)[nH]c3c2)cc1 [Compound 64] . Reported pEC50?
< 4.54

Entry under review: Cc1cnc2nc(-c3cc(NC(=O)NCCCCCCN(C)C)ccc3Cl)[nH]c2c1 [Compound 228] . Reported pEC50?
< 4.30

Entry under review: Cc1cnc2nc(-c3cc(NC(=O)[C@@H]4CCCN4)ccc3F)[nH]c2c1 [Compound 273] . Reported pEC50?
< 4.30

Entry under review: Cc1cnc2nc(-c3cc(NC(=O)N4CCC(N(C)C)C4)ccc3Cl)[nH]c2c1 (stereo not drawn) [Compound 233] . Reported pEC50?
< 4.30
